# assayNotes: Quantitative highthroughput screen to assess conditional lethalithy of SEM cells grown in RPMI1640 with dialyzed fetal bovine serum (RPMI+ds) (AID 1963884); note: nearly all actives have a fitted effect of over 35% in size;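 for viability: 100% = DMSO control wells and 0% = empty wells without cells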
# conditionDetails: SEM B-ALL cells, RPMI+dialyzed FBS, CellTiter-Glo viability, 48 h; series mostly up to 45.8 µM
Records with an inconclusive call do not appear. Activity calls are given as the source filed them. Calls come from the whole dose curve; as a rule, active = well fitted cell-killing curve with a large enough effect; inconclusive = small, poorly fitted or top-dose-only effect, or effect the other way; inactive = no such curve, though single readings can be large or run the other way.
Response enum: 1 for active, -1 for inactive

Use these answered entries as a reference point.
Test call, this molecule: Nc1nc(F)nc2c1ncn2[C@@H]1O[C@H](CO)[C@@H](O)[C@@H]1O 1

Test call, this molecule: NC(=O)c1ccc(-c2nc(-c3ccc4c(c3)OCCO4)c(-c3ccccn3)[nH]2)cc1 -1

Test call, this molecule: O=C(NCc1ccncc1)C12C[C@H]3C[C@@H](C1)CC(c1ccc(Cl)cc1)(C3)C2 1

Test call, this molecule: COC1=C2C[C@@H](C)C[C@H](OC)[C@@H](O)[C@@H](C)C=C(C)[C@H](OC(N)=O)[C@@H](OC)C=CC=C(C)C(=O)NC(=CC1=O)C2=O 1

Test call, this molecule: CC12CC3CC(C)(C1)CC(N)(C3)C2 -1

Test call, this molecule: CCN1CCN(c2ccc(Nc3cc(N(C)C(=O)Nc4c(Cl)c(OC)cc(OC)c4Cl)ncn3)cc2)CC1 1

Next:
Test call, this molecule: CCc1cccc(CC)c1NC(=O)N1Cc2[nH]nc(NC(=O)c3ccc(N4CCN(C)CC4)cc3)c2C1 1

Test call, this molecule: CN(C)c1ccc(C(=C2C=CC(=[N+](C)C)C=C2)c2ccc(N(C)C)cc2)cc1 1

Test call, this molecule: COc1cccc2cc(-c3nc(C4CCC(C(=O)O)CC4)n4ncnc(N)c34)[nH]c12 (centres undefined) 1
